These measurements were taken from patent US7439359B2.

# Test system: MCF-7
# test name: Growth inhibition, sulforhodamine B assay
# Assay type: cell-based, human
# condition info: Homo sapiens, MCF7, 72 hours, unit inferred
parameter: IC50 (µM)

[
  {
    "compound": "CCCCn1c(Cc2c(Br)c(OC)c(OC)c(OC)c2Br)nc2c(N)ncnc21",
    "output unit": "µM",
    "IC50": 30
  },
  {
    "compound": "CCCCCn1c(Cc2cc(OC)c(OC)c(OC)c2)nc2c(N)ncnc21",
    "output unit": "µM",
    "IC50": 62
  },
  {
    "compound": "C=CCCCn1c(Cc2cc(OC)c(OC)c(OC)c2)nc2c(N)nc(F)nc21 [PU47F]",
    "output unit": "µM",
    "IC50": 45
  },
  {
    "compound": "CCCCn1c(Cc2cc(OC)c(OC)c(OC)c2Cl)nc2c(N)ncnc21 [PU3PhCl]",
    "output unit": "µM",
    "IC50": 19
  }
]

(A) CCCCn1c(Cc2cc(OC)c(OC)c(OC)c2Br)nc2c(N)ncnc21
(B) CCCCCn1c(Cc2cc(OC)c(OC)c(OC)c2)nc2c(N)nc(F)nc21 [PU21F]
Please indicate which entry, A or B , has the lower recorded IC50 value. Respond with the label that goes with your answer. A

====

# System: MCF-7
# test name: Growth inhibition, sulforhodamine B assay
# Format: cell-based, human
# condition info: Homo sapiens, MCF7, 72 hours, unit inferred
parameter: IC50 (µM)

[
  {
    "compound": "C#CCCCn1c(Cc2cc(OC)c(OC)c(OC)c2)nc2c(N)ncnc21",
    "target or system": "MCF-7",
    "IC50 (µM)": 24
  },
  {
    "compound": "CCCn1c(Cc2cc(OC)c(OC)c(OC)c2)nc2c(N)nc(F)nc21 [PU43F]",
    "target or system": "MCF-7",
    "IC50 (µM)": 25
  },
  {
    "compound": "CCCCn1c(Cc2cc(OC)c(OC)c(OC)c2)nc2c(N)nc(F)nc21",
    "target or system": "MCF-7",
    "IC50 (µM)": 24
  },
  {
    "compound": "COc1cc(Cc2nc3c(N)nc(F)nc3n2CC2CCCO2)cc(OC)c1OC (centres unmarked) [PU20F]",
    "target or system": "MCF-7",
    "IC50 (µM)": 23
  },
  {
    "compound": "CCCCn1c(Cc2cc(OC)c(OC)c(OC)c2)nc2c(N)ncnc21",
    "target or system": "MCF-7",
    "IC50 (µM)": 50
  }
]
